studyTarget: Mitogen-activated protein kinase 14 (Homo sapiens)
Sequence (Q16539 whole entry): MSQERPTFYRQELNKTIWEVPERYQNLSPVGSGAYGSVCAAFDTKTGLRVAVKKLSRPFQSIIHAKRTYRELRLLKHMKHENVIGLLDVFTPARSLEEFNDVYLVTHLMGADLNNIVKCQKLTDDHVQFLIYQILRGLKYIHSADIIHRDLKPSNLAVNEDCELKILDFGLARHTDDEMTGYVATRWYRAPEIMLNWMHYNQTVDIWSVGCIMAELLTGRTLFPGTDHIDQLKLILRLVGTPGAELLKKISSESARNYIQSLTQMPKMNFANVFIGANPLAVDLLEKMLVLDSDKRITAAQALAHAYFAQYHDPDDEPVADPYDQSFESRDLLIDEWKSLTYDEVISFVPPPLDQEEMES
procedureSummary: Inhibition of P38alpha (unknown origin)
measurementType: IC50

// worked examples, IC50 included
| structureSmiles | IC50 |
| --- | --- |
| CN1CC[C@H](NC(=O)c2cc(-n3cc(NC(=O)Nc4ccccc4Cl)cn3)cs2)C1 | > 20 µM |
| O=C(Nc1cnn(-c2cc(C(=O)NC3CNC3)cs2)c1)Nc1ccccc1Cl | > 20 µM |

Give me IC50 for each of these compounds, listed below.
1. O=C(Nc1cnn(-c2csc(C(=O)NC[C@H]3CCOC3)c2)c1)Nc1ccccc1Cl
2. O=C(Nc1cnn(-c2csc(C(=O)N[C@@H]3CCNC3)c2)c1)Nc1ccccc1Cl
3. CN1CCC[C@H]1CNC(=O)c1cc(-n2cc(NC(=O)Nc3ccccc3Cl)cn2)cs1
4. [2H]C([2H])([2H])N1CC[C@@H](NC(=O)c2cc(-n3cc(NC(=O)Nc4ccccc4Cl)cn3)cs2)C1
5. CN1CC[C@H](CNC(=O)c2cc(-n3cc(NC(=O)Nc4ccccc4Cl)cn3)cs2)C1
6. CN1CC[C@@H](NC(=O)c2cc(-n3cc(NC(=O)Nc4ccccc4Cl)cn3)cs2)C1

stdout:
1: > 20 µM; 2: > 20 µM; 3: > 20 µM; 4: > 20 µM; 5: > 20 µM; 6: > 20 µM

Give me IC50 for each of these compounds, listed below.
1. O=C(Nc1cnn(-c2csc(C(=O)N[C@@H]3CCOC3)c2)c1)Nc1ccccc1Cl
2. CC(C)N1CC[C@H](NC(=O)c2cc(-n3cc(NC(=O)Nc4ccccc4Cl)cn3)cs2)C1
3. O=C(Nc1cnn(-c2csc(C(=O)NC3COC3)c2)c1)Nc1ccccc1Cl

stdout:
> 20 µM
> 20 µM
> 20 µM
